meta.source: patent US20240376190A1

Target: T1, FLAG-tagged mouse latent TGF-beta 1 (mouse, UniProt P04202 34-390)
T1 construct: Co-expressed with human furin; also called mouse latent TGF-beta 1 (SLC); mSLC
Experiment: SPR (BIACORE), antibody captured on anti-human Fc, antigen as analyte, pH 7.4
Recorded measurements of Kd, one per entry
Give a bare numeral; the unit nM is implied.

Binder | Measurement Units | Kd
hT0947AE22-SG181 (antibody, human IgG1, kappa, V domains shown, Human IgG1; Heavy chain = VH + CH, light chain = VL + CL) VH: QVQLVESGGGVVQPGRSLRLSCAASGFHFSREAMNWIRQPPGKGLEWIGYIYTSGTTYRANWARGRFTISRDNSKNTLYLQMNSLRAEDTAVYYCARGWHIFGHHYWVMHFWGQGTLVTVSS VL: DIQMTQSPSSLSASVGDRVTITCQASQSISTYLAWYQQKPGQPPKLLIYAASTLESGVPSRFSGSGSGTDFTLTISSLQPEDFATYYCQSYSDGDSVIFGQGTKVEIKR | nM | 5.76

Next up:
State the recorded Kd for this entry: hT0947AE24-SG181 (antibody, human IgG1, kappa, V domains shown, Human IgG1; Heavy chain = VH + CH, light chain = VL + CL) VH: QVQLVESGGGVVQPGRSLRLSCAASGFHFSSEAMNWIRQPPGKGLEWIGYIYTSGTTYRANWARGRFTISRDNSKNTLYLQMNSLRAEDTAVYYCARGWHIFGHHYWVMHFWGQGTLVTVSS VL: DIQMTQSPSSLSASVGDRVTITCQASQSISTYLAWYQQKPGQPPKLLIYAASTLEWGVPSRFSGSGSGTDFTLTISSLQPEDFATYYCQSYSDGDSVGFGQGTKVEIKR
7.03
